experiment: Metabolic stability evaluation in human liver microsomes; format: in vitro ADME; conditions: pH 7.4; human liver microsomes 0.5 mg/mL, compound 1 μM, NADPH, 37° C.; read-out: t1/2, experiment in human liver microsomes
Measure: half-life at 1 μM
Please state the number and follow it with the unit.

Answered examples (3):
[2H][C@@](CC(C)C)(NC(=O)CNC(=O)c1cc(Cl)ccc1Cl)B(O)O [Compound I-2]    29.8 min
[2H]C([2H])(C(C)C)[C@H](NC(=O)CNC(=O)c1cc(Cl)ccc1Cl)B(O)O [Compound I-3]    29.3 min
CC(C)C[C@H](NC(=O)CNC(=O)c1cc(Cl)ccc1Cl)B(O)O [Ixazomib, reference compound]    28.1 min

Ask: Write down half-life at 1 μM measured for item [2H]C([2H])(C(C)C)[C@]([2H])(NC(=O)CNC(=O)c1cc(Cl)ccc1Cl)B(O)O [Compound I-5]
Reply: 29.3 min

Ask: Specify half-life at 1 μM for [2H]C([2H])(NC(=O)c1cc(Cl)ccc1Cl)C(=O)N[C@@]([2H])(CC(C)C)B(O)O [Compound I-4] and stop.
Reply: 28.7 min
